Target: SARS-COV-2 RBD extracellular domain expressed with a C-terminal mouse IgG2a Fc (SARS-CoV-2)
Experiment: Biacore SPR, mAb captured on anti-hFc, 37 C
Reported koff by item:

| BINDER | UNITS_OF_MEASURE | koff |
| --- | --- | --- |
| mAb14230 (antibody, V domains shown) VH: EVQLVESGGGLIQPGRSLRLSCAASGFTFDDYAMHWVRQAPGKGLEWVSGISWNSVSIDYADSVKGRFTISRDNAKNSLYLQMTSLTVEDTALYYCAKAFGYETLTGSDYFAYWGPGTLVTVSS VL: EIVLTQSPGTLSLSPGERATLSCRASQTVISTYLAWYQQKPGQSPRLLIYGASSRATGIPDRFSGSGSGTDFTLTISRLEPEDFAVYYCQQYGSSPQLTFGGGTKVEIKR | s⁻¹ | 0.00049 |
| mAb15164 (antibody, V domains shown) VH: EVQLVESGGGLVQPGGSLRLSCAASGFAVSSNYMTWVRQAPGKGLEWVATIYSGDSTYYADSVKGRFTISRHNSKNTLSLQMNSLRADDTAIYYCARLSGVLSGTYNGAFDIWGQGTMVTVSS VL: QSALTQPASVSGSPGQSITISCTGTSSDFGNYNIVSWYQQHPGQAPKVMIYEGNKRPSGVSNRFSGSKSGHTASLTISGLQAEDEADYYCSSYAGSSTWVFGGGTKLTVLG | s⁻¹ | 9.4e-05 |

Data credit: patent US20260069689A1
